The reader will find reported Activity values listed item by item below.
system: Rattus norvegicus; assay: Toxicity in Sprague-Dawley rat assessed as increase in liver weight at 0.25 % compound administered in diet for 14 days relative to control; format: organism-based; details: in vivo, po, 336 h
Value expressed in %; do not type the unit.

Prompt: Recorded Activity for "CC(C)(Sc1cc(C(C)(C)C)c(O)c(C(C)(C)C)c1)C(=O)O" , please?
Response: 40

Prompt: Recorded Activity for "CCOC(=O)C(C)(C)Sc1cc(C(C)(C)C)c(O)c(C(C)(C)C)c1" , please?
Response: 20

Prompt: Recorded Activity for CCOC(=O)C(C)(C)Oc1ccc(Cl)cc1 [CLOFIBRATE] , please?
Response: 20

Prompt: Recorded Activity for CCCCCC(Sc1cc(C(C)(C)C)c(O)c(C(C)(C)C)c1)C(=O)O (stereo unspecified) , please?
Response: 10

Prompt: Recorded Activity for CCC(Sc1cc(C(C)(C)C)c(O)c(C(C)(C)C)c1)C(=O)O (stereo unspecified) , please?
Response: 40

Prompt: Recorded Activity for CCCC(Sc1cc(C(C)(C)C)c(O)c(C(C)(C)C)c1)C(=O)OCC (stereo unspecified) , please?
Response: 0
